Experiment: physchem
Conditions: 60/40 ch3oh/h2o, Solubility, both actives in solvent: Methomyl, with oxamyl, 1:2.5 wt.; 60/40 CH3OH/H2O; -6° C.
QUANTITY: solubility (mg/mL)
Output spec: scalar in mg/mL, unitless text.

Prompt: What does the record list as solubility for CNC(=O)ON=C(C)SC [Methomyl] ?
Completion: 440

* * *

Assay: physchem
Details: 50/50 ch3oh/h2o, Solubility, Methomyl alone in solvent, alone; -6° C.
QUANTITY: solubility (mg/mL)
Output spec: scalar in mg/mL, unitless text.

Prompt: What does the record list as solubility for "CNC(=O)ON=C(C)SC" ?
Completion: 105
